Listing of entries alongside the reported tissue uptake at 1 h.
METHOD_SUMMARY: Biodistribution in PC-3 tumor-bearing CB17-SCID mice
Format: in vivo
RUN_PARAMETERS: mouse, lung, intravenous, 100 pmol, ^177Lu-labeled; 1 h p.i.; 100 pmol; n = 4; read-out: Uptake in Lung
Starred links: 1 amine or outer side, 2 acyl side, 3 side chain; linkers in the order of their positions; H or OH if unused. Non-standard residues stand in square brackets, D forms with d. Residues, ends and D or L forms follow the SMILES beside them. *: point of attachment. DOTA = O=C(O)CN1CCN(CC(=O)O)CCN(CC(=O)*)CCN(CC(=O)O)CC1; Sta = CC(C)C[C@H](N)[C@@H](O)CC(=O)O; Bta = N[C@@H](Cc1csc2ccccc12)C(=O)O; X1 = O=C(CN1CCC(N[*:1])CC1)[*:2]; hSer = N[C@@H](CCO)C(=O)O
Field: numeric (%ID/g). Do not append units.

COMPOUND	U	tissue uptake at 1 h
CC(C)C[C@H](NC(=O)C[C@H](O)[C@H](CC(C)C)NC(=O)[C@H](Cc1c[nH]cn1)NC(=O)CNC(=O)[C@@H](NC(=O)[C@H](C)NC(=O)[C@H](Cc1c[nH]c2ccccc12)NC(=O)[C@H](CCO)NC(=O)[C@@H](Cc1ccccc1)NC(=O)CN1CCC(NC(=O)CN2CCN(CC(=O)O)CCN(CC(=O)O)CCN(CC(=O)O)CC2)CC1)C(C)C)C(N)=O [[^177Lu]Lu-[Hse^7]RM2, metal not drawn] ({DOTA}-[X1][dF][hSer]WAVGH[Sta]L-NH2)	%ID/g	0.9

# next compound below
Need tissue uptake at 1 h of CC(C)C[C@H](NC(=O)C[C@H](O)[C@H](CC(C)C)NC(=O)[C@H](Cc1c[nH]cn1)NC(=O)CNC(=O)[C@@H](NC(=O)[C@H](C)NC(=O)[C@H](Cc1csc2ccccc12)NC(=O)[C@H](CCC(N)=O)NC(=O)[C@@H](Cc1ccccc1)NC(=O)CN1CCC(NC(=O)CN2CCN(CC(=O)O)CCN(CC(=O)O)CCN(CC(=O)O)CC2)CC1)C(C)C)C(N)=O [[^177Lu]Lu-[Bta^8]RM2, metal not drawn] ({DOTA}-[X1][dF]Q[Bta]AVGH[Sta]L-NH2) , thanks.
1.8
